target.entity: T1, Extracellular domain (ECD) of the canine IL-4 receptor alpha-V5 epitope-AviTag-His Tag (canine)
T1 construct: monomeric form isolated by size exclusion; also called canine IL-4RA-V5-Avi-His; canine IL-4RA
T1 chain: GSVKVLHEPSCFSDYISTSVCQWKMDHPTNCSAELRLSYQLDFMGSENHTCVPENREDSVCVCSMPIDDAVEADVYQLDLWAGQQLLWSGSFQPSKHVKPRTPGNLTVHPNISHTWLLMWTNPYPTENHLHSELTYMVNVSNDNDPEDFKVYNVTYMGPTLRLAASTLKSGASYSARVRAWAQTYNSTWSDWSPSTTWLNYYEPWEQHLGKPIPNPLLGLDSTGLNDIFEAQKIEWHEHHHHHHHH
assay.explanation: SPR, Fab-SASA captured on BSA;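 further: biacore T200 SPR, Fab-SASA variants from E. coli conditioned medium captured on BSA-coated CM5 chip, canine IL-4RA injected 120 s then 420 s dissociation, 1:1 model fit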
Give measured Ratio WT-kd/clone-kd for each item. Keep answers brief.
The reply should be a number, written without any unit.

State the recorded Ratio WT-kd/clone-kd for this entry: TB640_005 Fab-SASA wild type (Fab, V domains shown, secreted from E. coli, tested in conditioned medium; also called WT; not shown: SASA tag then His-tag) VH: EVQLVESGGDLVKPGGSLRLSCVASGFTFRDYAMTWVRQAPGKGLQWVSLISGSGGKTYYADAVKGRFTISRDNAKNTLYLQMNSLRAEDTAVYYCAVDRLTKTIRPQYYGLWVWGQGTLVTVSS VL: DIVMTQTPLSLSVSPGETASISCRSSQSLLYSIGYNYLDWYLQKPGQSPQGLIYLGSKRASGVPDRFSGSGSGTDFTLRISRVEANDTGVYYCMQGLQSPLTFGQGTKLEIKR
1

What do you get for TB640_005 Fab-SASA VL-Q95N (Fab, V domains shown, not shown: SASA tag then His-tag) VH: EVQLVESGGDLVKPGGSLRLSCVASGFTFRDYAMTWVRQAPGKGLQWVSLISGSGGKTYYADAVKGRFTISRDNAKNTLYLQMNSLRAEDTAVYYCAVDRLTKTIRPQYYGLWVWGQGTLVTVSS VL: DIVMTQTPLSLSVSPGETASISCRSSQSLLYSIGYNYLDWYLQKPGQSPQGLIYLGSKRASGVPDRFSGSGSGTDFTLRISRVEANDTGVYYCMNGLQSPLTFGQGTKLEIKR ?
1.99

And then TB640_005 Fab-SASA VL-T102N (Fab, V domains shown, not shown: SASA tag then His-tag) VH: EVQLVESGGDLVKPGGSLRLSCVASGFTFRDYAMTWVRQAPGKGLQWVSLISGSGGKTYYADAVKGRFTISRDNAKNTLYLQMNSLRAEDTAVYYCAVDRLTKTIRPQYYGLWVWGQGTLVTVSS VL: DIVMTQTPLSLSVSPGETASISCRSSQSLLYSIGYNYLDWYLQKPGQSPQGLIYLGSKRASGVPDRFSGSGSGTDFTLRISRVEANDTGVYYCMQGLQSPLNFGQGTKLEIKR , what is it?
1.74

Reference source: patent US20250188176A1
